Where do the numbers come from? From the supplement of paper PMC12042874.

assay: amyloid nucleation score (Sup35N fusion, yeast selection) (log enrichment); library NNK1; higher = more nucleation; inactive = no reads after selection;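 further: zero at mode of non-aggregating sequences after 7 days selection at 30°C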
parameter: amyloid nucleation score

Example results:
YWVYSSRGCA
inactive
KLCCSLVNSIMNLFAMSAAV
inactive
GVKSQTMLGLQRSAAFILCY
-0.127
GICDLLAHG
0.322
VSVFLHAVITDPS
1.9
RSSSCKWV
-0.53

Challenge: Given the substance KCIDMVFKY , write its reported amyloid nucleation score.
Response given: 0.143

Challenge: Given the substance NTYGAGSLGITWQQVCLTYE , write its reported amyloid nucleation score.
Response given: 0.767

Challenge: Given the substance SNSFRLGGSNNYPMSSAPGL , write its reported amyloid nucleation score.
Response given: -1.74

Challenge: Given the substance TMIDNPVYPSVFRVGHDTLV , write its reported amyloid nucleation score.
Response given: 0.356

Challenge: Given the substance FSRYLPKLNSLAKDSIPVGR , write its reported amyloid nucleation score.
Response given: inactive

Challenge: Given the substance TFNLVLGLSWNPDMFGDKGV , write its reported amyloid nucleation score.
Response given: 1.2

Challenge: Given the substance FRWYRLRIIKSFSGNSASVR , write its reported amyloid nucleation score.
Response given: 3.1

Challenge: Given the substance MFGFHRNRDDHSCIHFTFK , write its reported amyloid nucleation score.
Response given: 2.58

Challenge: Given the substance RDPYFRQCTEKQI , write its reported amyloid nucleation score.
Response given: 1

Challenge: Given the substance AFFNCPSTNTVWQRFNANRF , write its reported amyloid nucleation score.
Response given: 1.72

Challenge: Given the substance GTGTAPGINPWLLDSFPAPV , write its reported amyloid nucleation score.
Response given: 0.378

Challenge: Given the substance LLWTKFGYCYRIEWSAVWFF , write its reported amyloid nucleation score.
Response given: -0.527

* * *

test: amyloid nucleation score (Sup35N fusion, yeast selection) (log enrichment); library NNK2; higher = more nucleation; inactive = no reads after selection
Below, each entry is listed alongside its reported amyloid nucleation score.
When you answer, write just the number.

Challenge: Given the substance RQLLTKCLCASTGGFIFSWD , write its reported amyloid nucleation score.
Response given: 0.792

Challenge: Given the substance RFVKSRRATILSNDG , write its reported amyloid nucleation score.
Response given: -0.198

Challenge: Given the substance FVEITRG , write its reported amyloid nucleation score.
Response given: -0.196

* * *

assay: amyloid nucleation score (Sup35N fusion, yeast selection) (log enrichment); library NNK3; higher = more nucleation; inactive = no reads after selection
The label depends only on amyloid nucleation score: YES if it is at least 0.7, NO if it is smaller.

FVPCVWLGSGNCLCTDTMLW
YES

Challenge: Say whether VIVVREYVVWKNISMIVDYL shows amyloid nucleation score of 0.7 or more.
Response given: NO

Challenge: Say whether ALVAPKAGAFMSLKVQLGMP shows amyloid nucleation score of 0.7 or more.
Response given: YES

Challenge: Say whether LRVYLLAWL shows amyloid nucleation score of 0.7 or more.
Response given: YES

* * *

Below, each entry is listed alongside its reported amyloid nucleation score.
test: amyloid nucleation score (Sup35N fusion, yeast selection) (log enrichment); library NNK3; higher = more nucleation; inactive = no reads after selection
When you answer, write just the number.

FVLGGFLNKN
-0.11

Challenge: Given the substance LRDTGWLIGLMCCSIQIGSG , write its reported amyloid nucleation score.
Response given: 2.13
